Read-out: Cytochrome P450 (CYP24A1), CYP24A1 (gene 1591)
Assay name: LTEA_HepaRG_CYP24A1: Life Technologies and Expression Analysis (LTEA) Assay for Cytochrome P450 (CYP24A1) using HepaRG (AID 2283478)
Condition summary: mRNA level, 48 h; actives raise or lower the signal
Active and inactive are the calls of the source. Rule for the calls: active = hit-call score of the fitted dose curve at least 0.9, where 1 is the maximum; inactive = score below 0.9.

# Compound, outcome
measured = [
    ("CCCCOC(=O)CC(CC(=O)OCCCC)(OC(C)=O)C(=O)OCCCC", "inactive"),
    ("O=C(O)Cn1c(=O)n(Cc2ccc(Br)cc2F)c(=O)c2ccc(Cl)cc21", "inactive"),
    ("CC(C)(C)c1cc(/C=C2\\SC(N)=NC2=O)cc(C(C)(C)C)c1O", "inactive"),
    ("COCC(C)OCC(C)OCC(C)O (stereo not drawn)", "inactive"),
    ("O=C(O)c1ccccc1-n1cc(C(=O)O)c(=O)c2cc(Nc3c(F)cc(F)cc3Cl)c(Cl)cc21", "inactive"),
    ("O=CCCCC=O", "inactive"),
    ("O=C1c2ccccc2C(=O)N1CCc1noc(-c2ccc(CN3CCCCCC3)s2)n1", "inactive"),
    ("CCCCCCCCOC(=O)c1cc(O)c(O)c(O)c1", "inactive"),
]
